Origin of measurements: PubChem BioAssay (NCI)

System: MCF7 breast
test_details: NCI tumour cell line growth inhibition, 48 h
Measured TGI, listed per entry for reference.
measured_parameter: TGI

# compound, measured
rows = [
    ("CCC1=NC(C(F)(F)F)(C(F)(F)F)N=C(/N=C(/N)N(C)C(C(C)C)P(=O)(OC(C)C)OC(C)C)O1 (stereo not given)", "> 100 µM"),
    ("N#CCCN(CCC#N)c1ccc(C(N=Nc2ccc(Cl)cc2)=Nc2ccc(F)cc2)cc1", "> 100 µM"),
    ("Cc1nnc(-c2ccc(C)c(-c3ccc(C(=O)NCc4ccc(Cl)cc4)cc3)c2)o1", "> 19 µM"),
    ("COc1cccc2cc(C(=O)Nc3ccccn3)c(=N)oc12", "> 100 µM"),
    ("COc1ccc2c(-c3ccc(O)cc3)c(Oc3ccc(Cl)cc3)c(=O)oc2c1", "> 23.1 µM"),
    ("Cn1c2c3c(F)c(F)ccc3nc-2cc2ccccc21", "30 µM"),
    ("CC(=O)N=C1N(/C=C2\\C(=O)Oc3ccccc3C2=O)C(=O)/C(=C/c2ccccc2Cl)N1C", "> 100 µM"),
    ("Oc1ccc(-c2cn3cc(C(F)(F)F)ccc3n2)cc1", "> 100 µM"),
    ("O=C(N/N=C(/COc1cccc(Cl)c1)N=Cc1cccnc1)c1ccncc1", "> 100 µM"),
    ("CC(=O)Nc1ccc2cc3[nH]c4cc(NC(C)=O)ccc4c3nc2c1", "> 100 µM"),
]

* * *

System: SNB-75 CNS
test_details: NCI tumour cell line growth inhibition, 48 h
measured_parameter: TGI

# compound, measured_parameter, measured
measured = [
    ("COc1ccc2c(c1)C(=O)c1c-2n(CCCN)c(=O)c2cc(OC)c(OC)cc12", "TGI", "2550 nM"),
    ("Cc1c(C2Cc3ccccc3N2)c2ccccc2n1C (centres undefined)", "TGI", "> 100000 nM"),
    ("CC1=NN(C(=O)c2ccncc2)C(=O)C1N=Nc1ccc2ccccc2c1 (centres undefined)", "TGI", "> 100000 nM"),
    ("CCC[CH2][Sn]([CH2]CCC)([O]C(=O)c1cc(F)cc(F)c1)[O][Sn]([CH2]CCC)([CH2]CCC)[O]C(=O)c1cc(F)cc(F)c1", "TGI", "2710 nM"),
]

* * *

Reported TGI values follow for various molecules
System: MDA-N
test_details: NCI tumour cell line growth inhibition, 48 h

# molecule, measured_target, unit_spec, limit_sign, TGI
data = [
    ("Oc1cc(CN2COc3ccccc32)c(O)cc1CNC1CCCCC1", "MDA-N", "µM", "=", 32.2),
    ("CC1OC(O[C@H]2CC[C@]3(C=O)[C@H]4CC[C@]5(C)[C@H](C6=CC(=O)OC6)CC[C@]5(O)[C@@H]4C=C[C@]3(O)C2)CC(O)C1O (stereo not given in full)", "MDA-N", "µM", "=", 0.807),
    ("NNC(=S)Nc1cccc(Cl)c1", "MDA-N", "µM", ">", 100),
    ("C=C1CC(CN2CCC(=O)NC2=O)(c2ccccc2)OC1=O (stereo not given)", "MDA-N", "µM", "=", 26.7),
    ("O=C(CCOS(=O)(=O)CF)N1CCN(C(=O)CCOS(=O)(=O)CF)CC1", "MDA-N", "µM", ">", 100),
    ("N#Cc1c(N)c(C#N)c2c(c1-c1ccc(Cl)cc1)COc1ccccc1-2", "MDA-N", "µM", "=", 66.4),
    ("O=[As](O)(O)c1ccc2nc3cc([As](=O)(O)O)ccc3nc2c1", "MDA-N", "µM", ">", 100),
    ("NC(=O)C(Nc1ccc(Cl)cc1)c1cc2cc(Br)ccc2nc1Cl (stereo not given)", "MDA-N", "µM", ">", 50),
    ("COc1ccc(-c2nc(-c3cnccn3)n(COCCO)n2)cc1", "MDA-N", "µM", ">", 100),
    ("CC(C)(C)NC(=O)C12C3C4C1C1C2C3C41C(=O)NC(C)(C)C (stereo not given)", "MDA-N", "µM", ">", 100),
]
